Data provenance: patent US10221163B2

target: IMP-1 (Serratia marcescens, UniProt P52699); assay: biochemical; assay type: biochemical; conditions: fluorescence assay, CCF2-FA substrate, 2 pM enzyme, 2 hours at 25° C.; read-out: IMP-1 IC50
Sequence (P52699 whole entry, looked up, species assumed): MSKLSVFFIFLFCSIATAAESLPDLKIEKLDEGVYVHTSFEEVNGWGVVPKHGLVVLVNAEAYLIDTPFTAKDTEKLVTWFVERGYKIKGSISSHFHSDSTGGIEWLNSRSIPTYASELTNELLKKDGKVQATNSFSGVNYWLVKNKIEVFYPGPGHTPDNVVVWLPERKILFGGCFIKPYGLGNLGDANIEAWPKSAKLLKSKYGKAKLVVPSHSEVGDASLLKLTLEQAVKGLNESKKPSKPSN
VALUE TYPE: pIC50
Give bare numbers, as −log10 of the molar value.

MOLECULE	pIC50
N[C@@H]1CNC[C@@H]1NS(=O)(=O)c1ccc(-c2cnc3cc[nH]c3c2)c(-c2nn[nH]n2)c1S(N)(=O)=O [Example 326]	9.19

Hey, quick one: what's pIC50 for each of these?
1. NCCNS(=O)(=O)c1ccc(-c2cccc3sc(CN)nc23)c(-c2nn[nH]n2)c1S(N)(=O)=O [Example 345]
2. NCCNS(=O)(=O)c1ccc(-c2cccc3oc(C(=O)O)nc23)c(-c2nn[nH]n2)c1S(N)(=O)=O [Example 13]

1. 9.17
2. 8.67

Hey, quick one: what's pIC50 for each of these?
1. CNS(=O)(=O)c1ccc(-c2cccc3sc(N)nc23)c(-c2nn[nH]n2)c1S(N)(=O)=O [Example 152]
2. Nc1ccc(-c2ccc(S(=O)(=O)NC3CNC3)c(S(N)(=O)=O)c2-c2nn[nH]n2)cn1 [Example 493]
3. NC[C@H](CO)NS(=O)(=O)c1ccc(-c2cccc(N)n2)c(-c2nn[nH]n2)c1S(N)(=O)=O [Example 364]
4. Nc1ccc(-c2ccc(S(=O)(=O)NC[C@@H]3CCCN3)c(S(N)(=O)=O)c2-c2nn[nH]n2)cn1 [Example 488]

1. 9.58
2. 9.39
3. 7.84
4. 9.45

* * *

biological target: IMP-1 (Serratia marcescens); experiment: biochemical; type: biochemical; details: IMP-1 IC50, fluorescence assay, CCF2-FA substrate, 2 pM enzyme, 2 hours at 25° C.
Please go through the items and note down their log10(IC50).
Plainly stated, the numbers are log10 of IC50 given in pM.

COMPOUND	ASSAYED SYSTEM	log10(IC50)
C[C@H](CN)NS(=O)(=O)c1ccc(-c2cccc3sc(N)nc23)c(-c2nnn[nH]2)c1S(N)(=O)=O	IMP-1 (Serratia marcescens)	2.43
C[C@@H](CN)NS(=O)(=O)c1ccc(-c2cccc3sc(N)nc23)c(-c2nn[nH]n2)c1S(N)(=O)=O	IMP-1 (Serratia marcescens)	3.26
C[N+](C)(C)CCNS(=O)(=O)c1ccc(-c2cccc3sc(N)nc23)c(-c2nnn[nH]2)c1S(N)(=O)=O.O=C([O-])C(F)(F)F [Example 391, trifluoroacetate]	IMP-1 (Serratia marcescens)	2.32
CNS(=O)(=O)c1ccc(-c2cccc3cn[nH]c23)c(-c2nn[nH]n2)c1S(N)(=O)=O	IMP-1 (Serratia marcescens)	2.33
Nc1nc2c(-c3ccc(S(=O)(=O)NC[C@@H]4CCNC4)c(S(N)(=O)=O)c3-c3nnn[nH]3)cccc2s1	IMP-1 (Serratia marcescens)	2.20

Hey, quick one: what's log10(IC50) for each of these?
1. NC[C@H]1CCN(S(=O)(=O)c2ccc(-c3cccc4sc(N)nc34)c(-c3nnn[nH]3)c2S(N)(=O)=O)C1
2. C[C@@H](N)CNS(=O)(=O)c1ccc(-c2cccc3sc(N)nc23)c(-c2nn[nH]n2)c1S(N)(=O)=O
3. Nc1nc2c(-c3ccc(S(=O)(=O)NC[C@H]4CCNC4)c(S(N)(=O)=O)c3-c3nnn[nH]3)cccc2s1

1: 2.92; 2: 2.53; 3: 2.20

Just so you know, measured log10(IC50) for Nc1nc2c(-c3ccc(S(=O)(=O)N4CCC[C@@H](N)C4)c(S(N)(=O)=O)c3-c3nnn[nH]3)cccc2s1 came out at 3.29
